MEASURED_TARGET: T1, Lyn SH2 domain (121-228) (human, UniProt P07948 121-228, biotin (on the AviTag))
T1 construct: source: E. coli C43(DE3) with BirA helper plasmid, purified (HisTrap, anion exchange, Ulp1 cleavage, SEC); not shown: His6-SUMO, N-terminal, cleaved; AviTag, C-terminal, kept
T1 sequence (P07948 121-228): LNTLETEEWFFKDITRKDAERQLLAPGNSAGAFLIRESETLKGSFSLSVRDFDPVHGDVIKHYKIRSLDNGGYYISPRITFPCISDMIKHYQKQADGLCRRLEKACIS
TEST: fluorescence polarisation; competition mode; unlabelled phosphopeptide against 30 nM FITC-Ahx-GDG-pY-EEISPLLL-NH2 and 106.5 nM Lyn SH2 (Table S3)
PARTICULARS: both partners purified
Non-standard residues stand in square brackets, D forms with d. pY = N[C@@H](Cc1ccc(OP(=O)(O)O)cc1)C(=O)O
VALUE_TYPE: log10 of Kd (log10 of the value in nM)

BINDER: Ac-QNDGEI[pY]DDIADG-NH2 (flank added to the 11-residue stretch (surmised: last residue of the library's constant GQSGQ); SLAP-130, human, around pY771; flank added to the 11-residue stretch (surmised: first residue of the library's constant GGQSG); source: synthetic peptide (SynPeptide, China)) [SLAP-130 pY771]
log10 of Kd: 1.99
--
BINDER: Ac-QAESRI[pY]DEILQG-NH2 (flank added to the 11-residue stretch (surmised: last residue of the library's constant GQSGQ); CD84, human, around pY296; flank added to the 11-residue stretch (surmised: first residue of the library's constant GGQSG); source: synthetic peptide (SynPeptide, China)) [CD84 pY296]
log10 of Kd: 1.96
--
BINDER: Ac-QGRREE[pY]DVLDKG-NH2 (SMILES CC(=O)N[C@@H](CCC(N)=O)C(=O)NCC(=O)N[C@@H](CCCNC(=N)N)C(=O)N[C@@H](CCCNC(=N)N)C(=O)N[C@@H](CCC(=O)O)C(=O)N[C@@H](CCC(=O)O)C(=O)N[C@@H](Cc1ccc(OP(=O)(O)O)cc1)C(=O)N[C@@H](CC(=O)O)C(=O)N[C@H](C(=O)N[C@@H](CC(C)C)C(=O)N[C@@H](CC(=O)O)C(=O)N[C@@H](CCCCN)C(=O)NCC(N)=O)C(C)C, flank added to the 11-residue stretch (surmised: last residue of the library's constant GQSGQ); CD3 zeta chain, human, around pY83; flank added to the 11-residue stretch (surmised: first residue of the library's constant GGQSG); also called CD3ζ pY83; source: synthetic peptide (SynPeptide, China)) [CD3Z pY83]
log10 of Kd: 3.47
--
BINDER: Ac-QEGGVD[pY]KNIHLG-NH2 (SMILES CC[C@H](C)[C@H](NC(=O)[C@H](CC(N)=O)NC(=O)[C@H](CCCCN)NC(=O)[C@H](Cc1ccc(OP(=O)(O)O)cc1)NC(=O)[C@H](CC(=O)O)NC(=O)[C@@H](NC(=O)CNC(=O)CNC(=O)[C@H](CCC(=O)O)NC(=O)[C@H](CCC(N)=O)NC(C)=O)C(C)C)C(=O)N[C@@H](Cc1c[nH]cn1)C(=O)N[C@@H](CC(C)C)C(=O)NCC(N)=O, flank added to the 11-residue stretch (surmised: last residue of the library's constant GQSGQ); CSF1R, human, around pY699; flank added to the 11-residue stretch (surmised: first residue of the library's constant GGQSG); also called CSFR pY699; source: synthetic peptide (SynPeptide, China)) [CSF1R pY699]
log10 of Kd: 4.36
--
BINDER: Ac-QHKEDV[pY]ENLHTG-NH2 (flank added to the 11-residue stretch (surmised: last residue of the library's constant GQSGQ); PTPN6 (SHP1), human, around pY564; flank added to the 11-residue stretch (surmised: first residue of the library's constant GGQSG); also called SHP1 pY564; source: synthetic peptide (SynPeptide, China)) [PTPN6 pY564]
log10 of Kd: 2.97
--
BINDER: Ac-QDDQEV[pY]DDVAEG-NH2 (flank added to the 11-residue stretch (surmised: last residue of the library's constant GQSGQ); SLAP-130, human, around pY595; flank added to the 11-residue stretch (surmised: first residue of the library's constant GGQSG); also called SLAP-130 Y595; source: synthetic peptide (SynPeptide, China)) [SLAP-130 pY595]
log10 of Kd: 2.38
--
BINDER: Ac-QPSTTE[pY]SEIKTG-NH2 (flank added to the 11-residue stretch (surmised: last residue of the library's constant GQSGQ); SIGLEC5, human, around pY544; flank added to the 11-residue stretch (surmised: first residue of the library's constant GGQSG); source: synthetic peptide (SynPeptide, China)) [SIGLEC5 pY544]
log10 of Kd: 2.56
--
BINDER: Ac-QDINSL[pY]DVSRMG-NH2 (flank added to the 11-residue stretch (surmised: last residue of the library's constant GQSGQ); PLCG2, human, around pY753; flank added to the 11-residue stretch (surmised: first residue of the library's constant GGQSG); also called PLCγ2 pY753; source: synthetic peptide (SynPeptide, China)) [PLCG2 pY 753]
log10 of Kd: 4.07
--
BINDER: Ac-QEWRSQ[pY]EALKEG-NH2 (flank added to the 11-residue stretch (surmised: last residue of the library's constant GQSGQ); TRAF3IP3, human, around pY322; flank added to the 11-residue stretch (surmised: first residue of the library's constant GGQSG); source: synthetic peptide (SynPeptide, China)) [TRAF3IP3 pY322]
log10 of Kd: 3.60

Attribution: paper doi:10.1101/2024.12.23.630085
